procedure-text: logP determination by HPLC on a reverse phase column (C18), EEC Directive 79/831 Annex V.A8
Type: physicochemical
measurement-setup: HPLC C18, 43° C., Table 1
recorded-endpoint: logP (pH 2.3)
Keep the answer to the number alone.

CCCC(C)SC(C)c1ccccc1NC(=O)c1c(C)nn(C)c1Cl (racemic) [compound 113] :: 4.07
CCCC(C)SC(C)c1ccccc1NC(=O)C1=C(C)OCCS1 (stereo not drawn) [compound 87] :: 4.53
CC(C)C(=O)OCc1ccccc1NC(=O)c1cccnc1Cl [compound 57] :: 2.38
CC(C)S(=O)(=O)C(C)c1ccccc1NC(=O)c1cccnc1Cl (stereo not drawn) [compound 5] :: 1.68

Query: logP (pH 2.3); subject: CC(C)S(=O)(=O)C(C)c1ccccc1NC(=O)c1cn(C)nc1C(F)F (stereo not drawn) [compound 16] 1.86

Query CC(C)NC(C)c1ccccc1NC(=O)c1cn(C)nc1C(F)(F)F (racemic) [compound 41] next 1.06

* * *

procedure-text: logP determination by HPLC on a reverse phase column (C18), EEC Directive 79/831 Annex V.A8
Type: physicochemical
measurement-setup: HPLC C18, 43° C., Table 1
# if value of logP (pH 2.3) reaches 2, tag Y; if it stays below, tag N

CC(SC1CCCC1)c1ccccc1NC(=O)c1ccccc1Br (centres unmarked) [compound 93] :: Y
Cc1nn(C)c(F)c1C(=O)Nc1ccccc1COC(=O)C(Cl)Cl [compound 52] :: Y
Cc1nn(C)cc1C(=O)Nc1ccccc1C(C)S(=O)(=O)C(C)C (centres unmarked) [compound 14] :: N
Cc1nn(C)c(F)c1C(=O)Nc1ccccc1COC(=O)C(C)C [compound 51] :: Y

We next turn to a different molecule, shown below.
Reported logP (pH 2.3) at or above 2? Cc1sccc1C(=O)Nc1ccccc1C(C)SC(C)C (centres unmarked) [compound 20] Y

* * *

Test system: Botrytis cinerea
procedure-text: Botrytis test (bean)/protective
Type: in vivo
measurement-setup: protective, application rate 500 g/ha, evaluation two days after inoculation, 0% = control, 100% = no infestation
Method: [table] To produce an appropriate active ingredient preparation, one part by weight of the active substance is mixed with the specified quantities of solvent and emulsifying agent, and the concentrate is diluted with water to the desired concentration. Young plants are sprayed with the active ingredient preparation at the specified application rate to test the effectiveness of protection. […] Two days after the inoculation, the size of the infestation spots on the leaves is evaluated. […]
recorded-endpoint: Degree of effectiveness in % (%)
Give the number; % is assumed, so skip it.

Worked cases, Degree of effectiveness in % given:
CC(C)SC(C)c1ccccc1NC(=O)c1cn(C)nc1C(F)(F)F (stereo not drawn) [drawing 488] :: 84
CC(C)SC(C)c1ccccc1NC(=O)c1cn(C)nc1C(F)F (stereo not drawn) [drawing 489] :: 100
CCCC(C)SC(C)c1ccccc1NC(=O)c1sc(C)nc1C(F)(F)F (stereo not drawn) [drawing 490] :: 99
CC(C)SC(C)c1ccccc1NC(=O)c1cn(C)cc1C(F)(F)F (stereo not drawn) [drawing 493] :: 97
CCC(C)SC(C)c1ccccc1NC(=O)c1cn(C)nc1C(F)(F)F (stereo not drawn) [drawing 491] :: 100

Below: the item to evaluate.
Query: Degree of effectiveness in %; subject: CCCC(C)SC(C)c1ccccc1NC(=O)c1cn(C)nc1C(F)F (stereo not drawn) [drawing 492] 97

* * *

procedure-text: logP determination by HPLC on a reverse phase column (C18), EEC Directive 79/831 Annex V.A8
Assay type: physicochemical
measurement-setup: reverse phase HPLC column (C18); pH 2.3; HPLC C18, 43° C.
Labelling field: enter Criterion met if recorded chromatographic logP is less than 2. Enter Criterion not met if it equals or exceeds that cut-off.

Example results:
Cn1cc(C(=O)Nc2ccccc2CO)c(C(F)(F)F)n1 :: Criterion met
CC(C)S(=O)(=O)Cc1ccccc1[N+](=O)[O-] :: Criterion met
CC(C)SC(C)c1ccccc1[N+](=O)[O-] (stereo not shown) :: Criterion not met
CC(C)SC(C)c1ccccc1N (stereo not shown) [III-1, 2-[1-(isopropylthio)ethyl]aniline] :: Criterion not met
CC(C)NC(C)c1ccccc1[N+](=O)[O-] (stereo not shown) :: Criterion met

Consider CC(O)c1ccccc1[N+](=O)[O-] (stereo not shown) . Does its chromatographic logP lie strictly below 2? Criterion met

Query CC(C)OCc1ccccc1NC(=O)c1cn(C)nc1C(F)(F)F next Criterion not met

Query CC(Cl)c1ccccc1[N+](=O)[O-] (stereo not shown) next Criterion not met

Query CC(C)SCc1ccccc1[N+](=O)[O-] next Criterion not met

Query Cc1nn(C)c(F)c1C(=O)Nc1ccccc1C(C)NC(C)C (stereo not shown) next Criterion met

* * *

Catalogue of compounds with associated chromatographic logP
procedure-text: logP determination by HPLC on a reverse phase column (C18), EEC Directive 79/831 Annex V.A8
Assay type: physicochemical
measurement-setup: reverse phase HPLC column (C18); pH 2.3; HPLC C18, 43° C.
Keep the answer to the number alone.

Worked cases, chromatographic logP given:
CC(C)SCc1ccccc1N [III-3, 2-[1-(isopropylthio)methyl]aniline] :: 1.94
CC(C)NC(C)c1ccccc1N (stereo not drawn) [III-4, 2-[1-(isopropylamino)ethyl]aniline] :: 0.05

Below: the item to evaluate.
Query: chromatographic logP; subject: CC(C)S(=O)(=O)C(C)c1ccccc1N (stereo not drawn) [III-2, 2-[1-(isopropylsulfonyl)ethyl]aniline] 1.28

* * *

procedure-text: logP determination by HPLC on a reverse phase column (C18), EEC Directive 79/831 Annex V.A8
Assay type: physicochemical
measurement-setup: HPLC C18, 43° C., Table 1
Definition: the class of an entry is the range in low = under 3, medium = from 3 up to 4, high = 4 and over that contains its logP (pH 2.3).

CC1=C(C(=O)Nc2ccccc2C(C)SC(C)C)SCCO1 (centres unmarked) [compound 98] :: medium
Cc1nc(C(F)F)c(C(=O)Nc2ccccc2CSC(C)C)s1 [compound 35] :: medium
CCCC(C)SC(C)c1ccccc1NC(=O)C1=C(C(F)(F)F)OCCS1 (racemic) [compound 110] :: high

Which class holds CC(C)S(=O)(=O)C(C)c1ccccc1NC(=O)c1cn(C)nc1C(F)(F)F (centres unmarked) [compound 15] ? low

Query CC(SC1CCCC1)c1ccccc1NC(=O)c1ccccc1C(F)(F)F (centres unmarked) [compound 97] next high

Query Cc1nc(C(F)(F)F)c(C(=O)Nc2ccccc2C(C)OC(C)C)s1 (centres unmarked) [compound 133] next medium

* * *

procedure-text: logP determination by HPLC on a reverse phase column (C18), EEC Directive 79/831 Annex V.A8
Format: physicochemical
measurement-setup: HPLC C18, 43° C., Table 1
Catalogue of molecules with associated logP (pH 2.3)

Worked cases, logP (pH 2.3) given:
CCC(C)SC(C)c1ccccc1NC(=O)c1ccoc1C (stereo not shown) :: 4.17
CC(C)OC(C)c1ccccc1NC(=O)c1ccccc1C(F)(F)F (stereo not shown) :: 3.81
CCCC(C)SC(C)c1ccccc1NC(=O)c1cn(C)nc1C (stereo not shown) :: 3.27
Cc1nn(C)c(F)c1C(=O)Nc1ccccc1CCOC(=O)C(Cl)Cl :: 2.43
CCC(C)SC(C)c1ccccc1NC(=O)C1=C(C)OCCS1 (stereo not shown) [compound 86] :: 4.07
CC(C)SC(C)c1ccccc1NC(=O)c1ccccc1I (racemic) :: 3.91

Query: logP (pH 2.3); subject: COC(C)c1ccccc1NC(=O)c1c(C)nn(C)c1F (racemic) 2.17

Query CC(C)C(=O)OCc1ccccc1NC(=O)c1cn(C)nc1C(F)(F)F next 2.74

Query CC(C)SCc1ccccc1NC(=O)c1ccccc1I next 3.68

Query Cc1nc(C(F)F)c(C(=O)Nc2ccccc2C(C)OC(C)C)s1 (stereo not shown) next 3.58

Query CC(C)C(=O)OCCc1ccccc1NC(=O)c1cn(C)nc1C(F)(F)F next 2.79

* * *

procedure-text: logP determination by HPLC on a reverse phase column (C18), EEC Directive 79/831 Annex V.A8
Assay type: physicochemical
measurement-setup: HPLC C18, 43° C., Table 1
# if value of logP (pH 2.3) reaches 4, tag yes; if it stays below, tag no

Example results:
CCCC(C)SC(C)c1ccccc1NC(=O)c1ccoc1C (centres unmarked) :: yes
CC(C)OC(C)c1ccccc1NC(=O)c1cn(C)nc1I (centres unmarked) :: no
CCCC(C)SC(C)c1ccccc1NC(=O)c1sc(C)nc1C(F)(F)F (mixture of isomers) :: yes
CC(C)OC(C)c1ccccc1NC(=O)C1=C(C(F)(F)F)OCCS1 (centres unmarked) :: no
CCCC(C)SC(C)c1ccccc1NC(=O)c1cn(C)cc1C(F)(F)F (racemic) :: yes

Reported logP (pH 2.3) at or above 4? CC(C)SCc1ccccc1NC(=O)C1=C(C(F)(F)F)OCCS1 no

Query CC(C)OC(C)c1ccccc1NC(=O)c1ccccc1I (centres unmarked) next no

Query COCc1ccccc1NC(=O)C1=C(C)OCC1 next no
